# Test system: K-562 leukemia
# TEST_DESCRIPTION: NCI tumour cell line growth inhibition, 48 h
EXPERIMENTAL_ENDPOINT: TGI

Please state TGI for every compound in the list that follows.
1. O=C(/C=C\c1ccc(OCCCCCC[P+](c2ccccc2)(c2ccccc2)c2ccccc2)cc1)c1ccc2c(c1)OCCO2
2. CCOc1ccc(-n2c(=O)n3c(Nc4ccc(Cl)cc4)nc4c(c(=O)n(C)c(=O)n4C)n3c2=O)cc1
3. CN(c1ccccc1Cl)S(=O)(=O)c1ccccc1
4. O=C1c2c(O)cccc2C(C(=O)CCCC(=O)C2c3cccc(O)c3C(=O)c3c(O)cccc32)c2cccc(O)c21

Marked response:
> 100 µM
84 µM
> 100 µM
4.86 µM

The following compounds each have a reported value; give each one's TGI.
1. N/C(=N\N=C/c1cc(Cl)cc(Cl)c1O)NO
2. CCC(C)c1cnc(CC(C)C)c(=O)[nH]1 (stereo not given)
3. COc1ccc(Cn2c3c(c4c(O)cccc42)C(=O)c2ccccc2-3)cc1
4. CN1CCN(c2ccc3nc(-c4ccc5nc(-c6ccc(N(C)CCCl)cc6)[nH]c5c4)[nH]c3c2)CC1

Marked response:
1. > 46.3 µM
2. > 100 µM
3. > 100 µM
4. 1.16 µM

Dear colleague, could you send me TGI for each of the items below? Thanks.
1. COc1cc(C(c2cc(OC)c(OC)c(OC)c2)N2C(=O)CCC2C(=O)O)cc(OC)c1OC (stereo not given)
2. CC1(C)CC(O)CCCCCCOc2c(CN)cccc2NC(=O)c2nc(cnc2N)-c2ccc(cc2)S1(=O)=O (stereo not given)
3. CCC(c1nc2ccccc2c(=O)n1NC(=O)C(C)(C)C)C1(O)CCCCC1 (stereo not given)
4. COc1cc(C(=C2SCCS2)c2nccc3cc(OC)c(OC)cc23)c([N+](=O)[O-])cc1OC
5. COc1cccc2cc(N(C)c3nc(C)nc4ccsc34)ccc12
6. O=c1[nH]c2cc([N+](=O)[O-])c(N(CCO)CCO)c([N+](=O)[O-])c2[nH]1
7. COC(=O)NN=C1C(C)(C)C(=NNC(=O)OC)C1(C)C
8. COc1ccc(Cn2cc3c(c2-c2ccccc2)CCc2cncnc2-3)cc1

Marked response:
> 100 µM
2.69 µM
> 100 µM
> 100 µM
> 48.6 µM
> 100 µM
> 100 µM
11.3 µM

The reported numbers originate from PubChem BioAssay (NCI).
